assay: viability gain of MRP-1-high H69AR cells under doxorubicin, pilot screen, MRP-1 activator project, CellTiter-Glo, duplicate (AID 807); settings: H69AR viability with doxorubicin, CellTiter-Glo luminescence; at 10 µM; stronger effect = higher value;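 also: compound pretreatment 18-22 h then 72 h combined with doxorubicin; 0% = doxorubicin alone and 100% = vehicle without doxorubicin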
Activity calls are given as the source filed them.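 The calls were made as follows: active = viability increase at or above a cutoff of the median across tested compounds plus 3 SD (cut at about 8.5% in these data, passing the limit was not always enough); inconclusive = some gains above the cutoff, reason not given; inactive = the rest.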
measure: viability increase

Consider the molecule CC1=C(C(=O)OCC(C)C)C(c2cc3c(cc2Br)OCO3)NC(=O)N1C (stereo not given) and give its measured viability increase. -2.54% (inactive)

Consider the molecule "COc1ccc(OC)c(NC(=O)CCNS(=O)(=O)c2cccs2)c1" and give its measured viability increase. -2.82% (inactive)

Consider the molecule O=C(NC1CCCc2ccccc21)C1CCN(c2nnc(-n3cccc3)s2)CC1 (stereo not given) and give its measured viability increase. -4.06% (inactive)

Consider the molecule "CSc1nc2ccc(Nc3nc(N4CCOCC4)nc(N4CCOCC4)n3)cc2s1" and give its measured viability increase. -5.72% (inactive)

Consider the molecule CC(C)COC(=O)C1C2C=CC3(CN(C(C)c4ccc(Br)cc4)C(=O)C13)O2 (stereo not given) and give its measured viability increase. -2.82% (inactive)

----------
For each of the molecules below, state its viability.
assay: SK-BR-3 cell growth inhibitors, pilot screen, 24 h, human (AID 572); conditions: SK-BR-3 viability, CellTiter-Glo luminescence, at 10 µM, stronger effect = lower value;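 also: compound exposure lasted between 18 and 24 h rather than exactly 24 h; 100% = carrier-treated control wells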
The source made the active and inactive calls.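 How the source made its calls: active means viability at or below 10% of carrier control in both of two separate runs; inconclusive means viability at or below 10% in only one of the two runs; inactive means the rest.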

Consider the molecule "Cc1nc(N2CCN(c3ncccn3)CC2)c2oc3ccccc3c2n1" and give its measured viability. 85% (inactive)

Consider the molecule "O=C(CCN1C(=O)c2ccccc2C1=O)N1CCN(C(=O)c2ccccc2)CC1" and give its measured viability. 106% (inactive)

Consider the molecule C1CCC(C(CC2CCCCN2)C2CCCCC2)CC1 (stereo unspecified) and give its measured viability. 2% (active)

Consider the molecule "COc1ccccc1-c1noc(-c2ccco2)n1" and give its measured viability. 102% (inactive)

Consider the molecule CC1=C(C(=O)OC2CCCCC2)C(c2ccc(C)o2)C2=C(CC(C)(C)CC2=O)N1 (stereo unspecified) and give its measured viability. 77.5% (inactive)

Consider the molecule "CCn1c(SCC(=O)Nc2ccc3c(c2)OCO3)nnc1-c1ccccc1O" and give its measured viability. 96% (inactive)

Consider the molecule "COC(=O)c1cc(=O)n2c(-c3ccc(OC)cc3)csc2n1" and give its measured viability. 110% (inactive)

Consider the molecule "O=C(Nc1nnc(C2CCCC2)s1)C1CCN(S(=O)(=O)c2ccc(Cl)cc2)CC1" and give its measured viability. 92% (inactive)

Consider the molecule CCOc1cc(C2/C(=C(/O)c3ccc(OC(C)C)cc3)C(=O)C(=O)N2CCCOC)ccc1O (stereo unspecified) and give its measured viability. 91.5% (inactive)

Consider the molecule "COc1cccc(OCCn2ccnc2)c1" and give its measured viability. 90.5% (inactive)

Consider the molecule "CC1(C)CC(=O)C2=C(C1)Nc1ccccc1N=C2" and give its measured viability. 66% (inactive)

----------
experiment: 384-well plate pilot, post-Golgi transport modulator project, inhibition of yeast transport mutant growth (AID 636); details: absorbance 615 nm, about 18 h, stronger effect = higher value
For each of the molecules below, state its inhibition.
Hi! Could you send only the number? It should be in %, unit omitted.

Consider the molecule "Cn1c(C(=O)NCc2cccnc2)cc2sccc21" and give its measured inhibition. 5.21

Consider the molecule "Oc1c(Cl)cc(Cl)cc1Sc1cc(Cl)cc(Cl)c1O" and give its measured inhibition. -0.78

Consider the molecule "O=C(Nc1ccc(S(=O)(=O)NCCc2ccccc2)cc1)c1ccc(Br)o1" and give its measured inhibition. -1.32

Consider the molecule CCOc1ccccc1C(=O)NCC(=O)OCC(=O)N1C(C)CCCC1C (centres undefined) and give its measured inhibition. -3.77

Consider the molecule "Cc1cc(=O)n(CCO)c(O)c1C#N" and give its measured inhibition. -3.95

Consider the molecule "CCc1ccc(NC(=O)c2cccnc2)cc1" and give its measured inhibition. -7.2

Consider the molecule "N#Cc1c(-c2ccccc2)nc(N2CCCCCC2)[nH]c1=O" and give its measured inhibition. -4.8

Consider the molecule "COc1cc2c(cc1NCc1ccccn1)oc1ccccc12" and give its measured inhibition. -4.13

Consider the molecule O=C(c1ccco1)N1CCN(CC2CC3C=CC2C3)CC1 (centres undefined) and give its measured inhibition. -1.43

Consider the molecule COc1ccccc1C1(CC(=O)N2CCOCC2)CCOC(C(C)C)C1 (centres undefined) and give its measured inhibition. -5.47

Consider the molecule CCn1cc(C(=O)OCC(=O)OC2CC(C)CCC2C(C)C)c(=O)c2ccc(C)nc21 (centres undefined) and give its measured inhibition. 78.4

Consider the molecule COc1ccc(N2C(=O)CC(N3CCCC4CCCCC43)C2=O)cc1 (centres undefined) and give its measured inhibition. -4.03

Consider the molecule "COc1ccc(-c2nnc(SCc3nnc(-c4ccc(Cl)cc4)o3)n2-c2ccccc2)cc1" and give its measured inhibition. -2.27

Consider the molecule "COc1ccccc1NC(=O)c1oc2ccccc2c1NC(=O)c1cc(OC)c(OC)c(OC)c1" and give its measured inhibition. -3.33

Consider the molecule CC(=O)C1=C(C)OC(N)=C(C#N)C1c1ccncc1 (centres undefined) and give its measured inhibition. -5.6

Consider the molecule "CCCC1(CCC)NC(=O)NC1=O" and give its measured inhibition. -0.26

Consider the molecule CC1Cc2ccccc2N1S(=O)(=O)c1ccc2c(c1)n(C)c(=O)c(=O)n2C (centres undefined) and give its measured inhibition. -4.93

Consider the molecule CCN(CC)CCCNC1CCS(=O)(=O)C1 (centres undefined) and give its measured inhibition. -3.42

Consider the molecule CCOc1ccc2nc(NC(=O)C(NS(=O)(=O)c3cccs3)C(C)C)sc2c1 (centres undefined) and give its measured inhibition. 0

Consider the molecule COCCN(C(=O)CNC(=O)c1ccco1)C(C(=O)NC1CCCCC1)c1cccc(OC)c1 (centres undefined) and give its measured inhibition. -1.3

Consider the molecule "COc1ccc(CCNc2oc(COc3ccc(F)cc3)nc2C#N)cc1" and give its measured inhibition. -4.73

Consider the molecule Cc1ccc(S(=O)(=O)N2CCN(C(=O)CN3CCOCC3)C2C(C)C)cc1 (centres undefined) and give its measured inhibition. -2.86

Consider the molecule "COC(=O)[C@H](CCSC)NC(=O)Nc1cc(C)ccc1C" and give its measured inhibition. -6.22

Consider the molecule "CCCN1Cc2cccc(C(=O)NCc3cccs3)c2C1=O" and give its measured inhibition. -6

----------
For each of the molecules below, state its viability.
test: reversal of MRP1-mediated doxorubicin resistance, pilot screen, H69AR cells, doxorubicin co-treatment (AID 601); settings: H69AR cells + 2 uM doxorubicin, CellTiter-Glo, 72 h; measured here: viability with 2 uM doxorubicin; at 10 µM; stronger effect = lower value
Hi! Could you send only the number? It should be in %, unit omitted.

Consider the molecule COc1ccc(S(=O)(=O)NC(CC(=O)NCc2ccco2)c2ccco2)cc1 (centres undefined) and give its measured viability. 81.3

Consider the molecule "Cc1cc(C)c2c(n1)nn1c(NCCCN3CCOCC3)cc(C)nc21" and give its measured viability. 90.6

Consider the molecule "O=C(COC(=O)CCC1CCCC1)Nc1ccc(Cl)cn1" and give its measured viability. 93.2

Consider the molecule "CCCCCCc1ccc(-c2ncc(N)cn2)cc1" and give its measured viability. 61.9

----------
For each of the molecules below, state its inhibition.
assay: 384-well plate pilot, post-Golgi transport modulator project, inhibition of yeast transport mutant growth (AID 636); conditions: absorbance 615 nm, about 18 h, stronger effect = higher value
Hi! Could you send only the number? It should be in %, unit omitted.

Consider the molecule "c1n[nH]c(SCCCCSc2ncn[nH]2)n1" and give its measured inhibition. -6.71

Consider the molecule "Cc1nc(C)c2c(c1C(F)(F)F)-c1ccccc1C2(F)F" and give its measured inhibition. -4.4

Consider the molecule "CC(=O)C1=C(NC(=O)c2ccccc2F)C[C@@H]2[C@H]1C2(C)C" and give its measured inhibition. -10.7

Consider the molecule "COc1cc(CN2CCSCC2)cc(OC)c1OC" and give its measured inhibition. -0.65

Consider the molecule "COc1ccc2c(=O)c3c(=O)n(Cc4ccco4)c(-c4cc(OC)c(OC)c(OC)c4)nc3oc2c1" and give its measured inhibition. -2.53

Consider the molecule "CCC(=O)Nc1ccc(NC(=O)c2ccccn2)cn1" and give its measured inhibition. -5.47

Consider the molecule "CCOc1ccccc1-n1nnnc1SCC(=O)Nc1cc2oc3ccccc3c2cc1OC" and give its measured inhibition. 4.16

Consider the molecule "COc1cccc(Cn2c(-c3nonc3N)nc3ccccc32)c1" and give its measured inhibition. -2.6

Consider the molecule "Cc1ccccc1Cn1c(=O)c2c(nc3n2CCCN3Cc2ccccc2)n(C)c1=O" and give its measured inhibition. -3.2

Consider the molecule "CCCOc1ccc(S(=O)(=O)NCCCN2CCOCC2)c2ccccc12" and give its measured inhibition. -6.13

Consider the molecule "COc1cccc(CN(C(=O)c2cc3ccccc3oc2=O)C2CC2)c1" and give its measured inhibition. -0.13

Consider the molecule "COC(=O)c1cccc(S(=O)(=O)N2CCC(C)CC2)c1" and give its measured inhibition. 0.52

Consider the molecule "O=C(COn1nnc2ccc(C(F)(F)F)cc21)Nc1nnc(-c2ccccc2)o1" and give its measured inhibition. -7.76

Consider the molecule "O=C(Cn1[nH]c(=O)c2ccccc2c1=O)OCC(=O)N1CCCc2ccccc21" and give its measured inhibition. -5.73

Consider the molecule "COCCCNC(=O)CSc1nc2ccc(N3CCOCC3)cc2c(=O)n1CCc1ccccc1" and give its measured inhibition. -2.73
